- Tested on: MOLT-4
- procedure_details: NCI tumour cell line growth inhibition, 48 h
Activity calls are given as the source filed them. Rule as the data show it: active = GI50 up to about 1.1 µM and inactive = higher.
value_type: GI50

Consider the compound CCOC(=O)Nc1ccc(C)c(NC(=O)OCC)c1 and give its measured GI50.
> 100 µM (inactive)

Consider the compound Cc1ccc2c(c1)OC1Nc3ccccc3C1=C2O (stereo not given) and give its measured GI50.
32.1 µM (inactive)

Consider the compound Cc1c(C(=O)CSc2nc3ccccc3[nH]2)c(=O)n(-c2ccccc2)n1C and give its measured GI50.
> 100 µM (inactive)

Consider the compound Nc1ncnc2c1N=C(c1ccccc1)CC(c1ccccc1)N2 (stereo not given) and give its measured GI50.
> 100 µM (inactive)

Consider the compound CC1=C(c2cc(C(=O)Nc3cc(C)ccc3C)nc(N)n2)Sc2ccccc2N1 and give its measured GI50.
> 100 µM (inactive)

Consider the compound Nc1c(Br)cc(-c2nc3ccccc3s2)cc1Br and give its measured GI50.
> 100 µM (inactive)

Consider the compound CC(C)(C)C1=NC(=S)SC2=NC(=O)C3(NN21)c1ccccc1-c1ccccc13 and give its measured GI50.
3.45 µM (inactive)

Consider the compound CCOC(=O)c1cnn2c1ncc1c(=O)n(NC(N)=O)ccc12 and give its measured GI50.
> 100 µM (inactive)

Consider the compound CCOC(=O)CC1(O)CCCCC1(Sc1ccc(C)cc1)Sc1ccc(C)cc1 (stereo not given) and give its measured GI50.
24.9 µM (inactive)

Consider the compound C=C1[C@@H]2CCC3[C@]4(C)C(CC[C@@]5(C)C(=O)O[C@H](O)[C@@H]45)[C@H](O)[C@]3(C2)[C@H]1OC1OC(CO)C(O)C(O)C1O (stereo not given in full) and give its measured GI50.
17.4 µM (inactive)

----------
- Tested on: SF-295
- procedure_details: NCI tumour cell line growth inhibition, 48 h
Calls of active or inactive are those of the source. Cut-off read from the data, not from the text of the source: active = GI50 up to about 1.1 µM and inactive = higher.
Would you mind telling me the reported GI50 of each entry?

Consider the compound CC(C)(C)n1c(=O)n(-c2ccccc2)n(C(C)(C)C)c1=O and give its measured GI50.
> 100 µM (inactive)

Consider the compound CC(=N/N=C/c1ccccn1)/C(C)=N/N=C(C)/C(C)=N/N=C(C)/C(C)=N/N=C(C)/C(C)=N\N=C\c1ccccn1 and give its measured GI50.
> 100 µM (inactive)

Consider the compound O=C(Nc1nnn[nH]1)c1nc(O)cc(-c2ccccc2)n1 and give its measured GI50.
> 100 µM (inactive)

Consider the compound C=CCc1cc(OC)c2c(c1)C(OC)CC(c1ccc(OC)c(OC)c1)O2 (stereo unspecified) and give its measured GI50.
> 100 µM (inactive)

Consider the compound CC(=O)Nc1ccccc1-c1cnc2ccccc2n1 and give its measured GI50.
> 100 µM (inactive)

Consider the compound C=CCOC(=O)C1CCC(=O)N1C(=O)C(Cl)Cl (stereo unspecified) and give its measured GI50.
> 100 µM (inactive)

Consider the compound CC1=C(C(N)=O)C(c2ccncc2)C(C#N)=C2SCC(=O)N12 (stereo unspecified) and give its measured GI50.
> 100 µM (inactive)

Consider the compound CSc1nncc2[nH]cnc12 and give its measured GI50.
> 100 µM (inactive)

Consider the compound CCCCC(C(=O)CCC(=O)Nc1ccc(Cl)c(Cl)c1)C(=O)C(C)C (stereo unspecified) and give its measured GI50.
85.3 µM (inactive)

Consider the compound OC1(c2ccccc2)C2CCN(CC2)C1CN1CCOCC1 (stereo unspecified) and give its measured GI50.
> 100 µM (inactive)

Consider the compound OC1(c2ccc3ccccc3c2)c2c(c3ccccc3c3ccccc23)C2=NCCN21 (stereo unspecified) and give its measured GI50.
3.09 µM (inactive)

----------
- Test system: COLO 205
- procedure_details: NCI tumour cell line growth inhibition, 48 h
Active and inactive are the calls of the source. Rule as the data show it: active = GI50 up to about 1.1 µM and inactive = higher.
Would you mind telling me the reported GI50 of each entry?

Consider the compound COc1ccc(C2SCC(=O)N2NC(=O)c2ccc(NC(C)=O)cc2)cc1 (stereo not given) and give its measured GI50.
> 100 µM (inactive)

Consider the compound CCOC(=O)CC1(O)CCCCC1(Sc1ccc(C)cc1)Sc1ccc(C)cc1 (stereo not given) and give its measured GI50.
42.2 µM (inactive)

Consider the compound COc1ccc2c(c1)C1(C=N2)CCN(C(C)=O)CC1 and give its measured GI50.
> 100 µM (inactive)

Consider the compound COc1ccc(C2Oc3c(cc(O)c(OC)c3C)[C@@H]2C)cc1OC (stereo not given in full) and give its measured GI50.
> 100 µM (inactive)

Consider the compound O=C(NC12CC3CC(CC(C3)C1)C2)C(=O)c1c[nH]c2ccc([N+](=O)[O-])cc12 and give its measured GI50.
24.5 µM (inactive)

----------
- Tested on: OVCAR-4
- procedure_details: NCI tumour cell line growth inhibition, 48 h
Calls of active or inactive are those of the source. No stated cut-off is given here; in the data, active = GI50 up to about 1.1 µM and inactive = higher.
Would you mind telling me the reported GI50 of each entry?

So what GI50 did CCCCCCCCCCCCCCCC(=O)OCC1OC(n2cc(F)c(=O)[nH]c2=O)C(NC(=O)N(CCCl)N=O)C(O)C1O (stereo not given) get with OVCAR-4?
7.96 µM (inactive)

So what GI50 did O=C(NC12CC3CC(CC(C3)C1)C2)C(=O)c1c[nH]c2ccc([N+](=O)[O-])cc12 get with OVCAR-4?
7.59 µM (inactive)

So what GI50 did COCOc1cc(OC)ccc1C/C(=N/O)C(=O)OC get with OVCAR-4?
> 100 µM (inactive)

So what GI50 did CC(C)C12C=CC(C)(CC1)n1c(=O)c3cc4ccccc4cc3c(=O)n12 (stereo not given) get with OVCAR-4?
43.9 µM (inactive)

So what GI50 did O=C1C(Cl)=C(c2ccc([N+](=O)[O-])cc2)C(=O)c2c(O)cccc21 get with OVCAR-4?
1.93 µM (inactive)

----------
- System: MCF7
- procedure_details: NCI tumour cell line growth inhibition, 48 h
Active and inactive are the calls of the source. Cut-off read from the data, not from the text of the source: active = GI50 up to about 1.1 µM and inactive = higher.
Response enum: active, inactive

For this compound, state the assay outcome: C[C@H](CCC(=O)O[C@@H]1CC[C@@]2(C)C(CC[C@H]3[C@@H]4CC[C@H]([C@H](C)CCc5nc6ccccc6[nH]5)[C@@]4(C)CC[C@@H]32)C1)[C@H]1CC[C@H]2[C@@H]3CCC4C[C@H](O)CC[C@]4(C)[C@H]3CC[C@]12C (stereo partly drawn)
inactive

For this compound, state the assay outcome: COc1cc(C(=O)N(C(=O)N2CCCCC2)c2ccccc2)cc(OC)c1OC
inactive

For this compound, state the assay outcome: Cc1ccc(C(=O)/C=C(O)/C(O)=C/C(=O)c2ccc(C)cc2C)c(C)c1
inactive

For this compound, state the assay outcome: CSc1cc(-c2cccs2)sc1-c1cc(SC)c(-c2sc(-c3sc(-c4cccs4)cc3SC)cc2SC)s1
inactive

For this compound, state the assay outcome: CCOC(=O)Nc1ccc(C)c(NC(=O)OCC)c1
inactive

For this compound, state the assay outcome: CN1C(=O)C(CCO)(C(C)(C)C)c2ccccc21 (stereo not drawn)
inactive

For this compound, state the assay outcome: CC(=O)Nc1ccc(NCC(=O)Nn2cnc3ccc(S(=O)(=O)Nc4ccc(NC(C)=O)cc4)cc3c2=O)cc1
inactive

For this compound, state the assay outcome: COC1N(C2CC(O)C(CO)O2)C(=O)NC(=O)C1(F)Br (stereo not drawn)
active

----------
- System: M19-MEL
- procedure_details: NCI tumour cell line growth inhibition, 48 h
The source made the active and inactive calls. Rule as the data show it: active = GI50 up to about 1.1 µM and inactive = higher.
Response enum: active, inactive

For this molecule, state the assay outcome: COc1cc(C2(c3ncc[nH]3)SSSCC2O)ccc1O (stereo unspecified)
inactive

For this molecule, state the assay outcome: Cc1c2cc[n+](Cc3ccc(I)cc3)cc2c(C)c2c1[nH]c1ccccc12
active

For this molecule, state the assay outcome: O=[N+]([O-])c1nccn1COCCBr
inactive

For this molecule, state the assay outcome: Cc1cc(-c2c(F)cc3c4nn([C@H]5CC[C@@H](N(C)C)CC5)c(=O)c-4cn(C4CC4)c3c2F)cc(C)n1
active

For this molecule, state the assay outcome: COc1cc(C2c3cc4c(cc3OC3(O)COC(=O)C23)OCO4)cc(OC)c1OC (stereo unspecified)
inactive

For this molecule, state the assay outcome: CCn1c2c(c3ccccc31)[C@@H](c1ccc(Cl)cc1)CC1C(=O)N(c3ccccc3)C(=O)C21 (stereo partly specified)
inactive

For this molecule, state the assay outcome: CCOC(=O)C1S/C(=N/c2ccc(Cl)cc2C)N=C1C (stereo unspecified)
inactive

For this molecule, state the assay outcome: S=c1sc2c(Cl)nc(Cl)nc2n1-c1ccccc1
inactive

For this molecule, state the assay outcome: Nc1nc(N)c2ncn(CCCC(c3ccccc3)P(=O)(O)O)c2n1 (stereo unspecified)
inactive

For this molecule, state the assay outcome: C=CCN(N=O)C(=O)N(CCC)CCCCC(NC(C)=O)C(=O)NCc1ccccc1 (stereo unspecified)
inactive

For this molecule, state the assay outcome: CC1(C)CC(=O)c2c(oc3cc(O)c(O)cc23)C1
inactive

meta.source: ChEMBL document CHEMBL1201862
